Below, each entry is listed alongside its reported pKb.
- test target: Alpha-1D adrenergic receptor (Rattus norvegicus) (UniProt P23944)
- Sequence (P23944 whole entry): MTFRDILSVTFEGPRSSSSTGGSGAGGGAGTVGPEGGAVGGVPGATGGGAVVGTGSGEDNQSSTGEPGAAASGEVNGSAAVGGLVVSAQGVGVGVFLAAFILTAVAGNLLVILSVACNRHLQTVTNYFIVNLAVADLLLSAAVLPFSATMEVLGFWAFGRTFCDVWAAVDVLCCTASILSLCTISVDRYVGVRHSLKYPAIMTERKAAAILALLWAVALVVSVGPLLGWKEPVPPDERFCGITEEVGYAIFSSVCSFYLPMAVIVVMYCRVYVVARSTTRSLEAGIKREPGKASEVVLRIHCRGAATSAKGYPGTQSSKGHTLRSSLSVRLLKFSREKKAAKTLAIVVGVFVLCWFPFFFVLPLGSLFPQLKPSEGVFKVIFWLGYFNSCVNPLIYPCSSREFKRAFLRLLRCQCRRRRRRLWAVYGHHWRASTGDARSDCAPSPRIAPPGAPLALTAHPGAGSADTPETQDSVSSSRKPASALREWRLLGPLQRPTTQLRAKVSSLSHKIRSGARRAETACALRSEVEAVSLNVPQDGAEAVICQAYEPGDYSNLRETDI
- test protocol: Antagonist activity at alpha1D adrenoceptor in Wistar rat thoracic aorta assessed as noradrenaline-induced contractions after 30 mins
measured quantity: pKb

[
  {
    "compound": "CCCCNC(=O)N1CCC2(CC1)OCC(CN1CCN(c3ccccc3OC)CC1)O2 (centres undefined)",
    "measured quantity": "pKb",
    "observed": 7.29
  },
  {
    "compound": "COc1ccccc1N1CCN(CC2COC3(CCN(S(=O)(=O)c4ccc(OC(F)(F)F)cc4)CC3)O2)CC1 (centres undefined)",
    "measured quantity": "pKb",
    "observed": 7.37
  },
  {
    "compound": "COc1ccccc1N1CCN(CC2COC3(CCN(S(=O)(=O)c4cccc([N+](=O)[O-])c4)CC3)O2)CC1 (centres undefined)",
    "measured quantity": "pKb",
    "observed": 7.98
  },
  {
    "compound": "COc1ccccc1N1CCN(CC2COC3(CCN(C(=O)C(F)(F)F)CC3)O2)CC1 (centres undefined)",
    "measured quantity": "pKb",
    "observed": 7.5
  },
  {
    "compound": "COc1ccccc1N1CCN(CC2COC3(CCNCC3)O2)CC1 (centres undefined)",
    "measured quantity": "pKb",
    "observed": 6.89
  },
  {
    "compound": "COc1ccccc1N1CCN(CC2COC3(CCS(=O)(=O)CC3)O2)CC1 (centres undefined)",
    "measured quantity": "pKb",
    "observed": 7.2
  },
  {
    "compound": "COc1ccccc1N1CCN(CC2COC3(CCN(C(=O)c4ccccc4)CC3)O2)CC1 (centres undefined)",
    "measured quantity": "pKb",
    "observed": 7.45
  },
  {
    "compound": "COc1ccccc1N1CCN(CC2COC3(CCN(C(=O)Nc4ccccc4)CC3)O2)CC1 (centres undefined)",
    "measured quantity": "pKb",
    "observed": 7.26
  },
  {
    "compound": "COc1ccccc1N1CCN(CC2COC3(CCN(S(=O)(=O)c4cccs4)CC3)O2)CC1 (centres undefined)",
    "measured quantity": "pKb",
    "observed": 7.27
  }
]

These data points were gathered from ChEMBL document CHEMBL3351355.
